# maps each entry to its log10(Kd)
- target of assay: T1, PUF4 RNA-binding domain (Saccharomyces cerevisiae, UniProt P25339 537-888)
- T1 sequence: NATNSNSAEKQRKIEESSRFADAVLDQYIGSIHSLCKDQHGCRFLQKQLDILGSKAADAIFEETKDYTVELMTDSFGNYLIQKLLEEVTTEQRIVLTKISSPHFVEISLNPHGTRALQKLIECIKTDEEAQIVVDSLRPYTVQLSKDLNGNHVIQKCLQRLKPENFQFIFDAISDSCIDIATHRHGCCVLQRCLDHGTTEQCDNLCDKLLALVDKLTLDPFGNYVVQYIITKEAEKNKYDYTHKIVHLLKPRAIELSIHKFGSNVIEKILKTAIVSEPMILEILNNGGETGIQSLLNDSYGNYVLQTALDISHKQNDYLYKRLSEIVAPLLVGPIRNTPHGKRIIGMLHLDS
- assay info: Mg; RNA-MaP; 20 mM Na-HEPES pH 7.4, 30 mM KOAc, 0.75 mM MgCl2, 0.1% Tween-20, 5% glycerol, 0.1 mg/mL BSA, 2 mM DTT; 25 C; 0.0125-409.6 nM protein
- condition context: tags: N-His6-TEV cleaved; C-SNAP kept, Cy3B-labelled; label: tethered on chip by stalled RNA polymerase
Recorded Kd (log10, nM)

Below, 5 binders whose answers are already recorded.
{"binder": "UCUCUUUGUACGUUUUCUCUU (ssRNA) [Ic_S1_P4E.1_K4.1_C4.1_H4.1_A4.1_[T5C]_[A6G]_F4.1_[A9T]_T4.1]", "log10(Kd)": 1.58}
{"binder": "Ic_S2_P4E.1_K4.1_C4.1_H4.1_A4.1_[T5A]_[A6T]_[T7G]_F4.1_[T8C]_[A9T]_T4.1 (ssRNA) RNA: UUUGAUUAAUAUGAUAUCGUUCUUUCUUGUAAUGCUUUCUUUCUCGAUAUCAUAUUAAUCUUU", "log10(Kd)": 2.71}
{"binder": "ACAAACUGCUUUAUAUUAACAAAC (ssRNA) [Ie_S3_P4E.1_K4.1_C4.1_H4.1_[+2CTT]_A4.1_F4.1_T4.1]", "log10(Kd)": 2.95}
{"binder": "UCUCUUUGUACAUACGUCUCUU (ssRNA) [Ic_S1_P5E.1_K5.1_C5.1_H5.1_A5.1_[T5C]_[T6A]_[A7T]_F5.1_[T8A]_[T9C]_[A10G]_T5.1]", "log10(Kd)": 1.04}
{"binder": "ACAAACUUUAUAUAUAAUACAAAC (ssRNA) [Id_ii_S3_P3E.3_K3.2_C3.2_[C-2T]_H3.2_A3.1_F3.1_T3.2_[T9A]_[A10T]]", "log10(Kd)": 2.17}

Now consider the entry below.
I am curious: what log10(Kd) value has been reported for Id_ii_S4_P3E.3_K3.2_C3.2_H3.2_A3.1_F3.1_T3.2_[T9G]_[A10C] (ssRNA) RNA: UUUGACAACUGAUCGUUCUUUCUCUUAUAUAUAGCUUCUUUCUCGAUCAGUUGUCUUU ?
2.75

Hey, just so you know, these numbers are from paper PMC9352680.
